tgt: T1, human MSLN-R1-his protein (human, UniProt Q13421 296-390)
T1 construct: Made in HEK293E cells, purified on nickel column; also called hMSLN-R1-his; human MSLN-R1 protein; not shown: His tag
T1 chain: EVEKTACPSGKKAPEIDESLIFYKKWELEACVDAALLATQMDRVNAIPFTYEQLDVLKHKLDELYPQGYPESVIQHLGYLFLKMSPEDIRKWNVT
assay_remarks: ELISA, coated antigen, antibody 0.2 nM
Entries annotated with measured OD450

binder	OD450
S009-F7.21.16 chimeric antibody (antibody, human IgG1, kappa, V domains shown, Human-murine chimeric antibody, human IgG1/kappa constant regions) VH: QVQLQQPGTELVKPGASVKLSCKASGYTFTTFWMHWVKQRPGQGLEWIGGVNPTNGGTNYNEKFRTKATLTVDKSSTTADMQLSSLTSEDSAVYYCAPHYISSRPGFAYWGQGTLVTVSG VL: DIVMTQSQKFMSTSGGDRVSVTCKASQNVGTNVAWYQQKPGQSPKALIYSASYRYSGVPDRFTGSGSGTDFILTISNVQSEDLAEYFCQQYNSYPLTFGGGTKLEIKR	0.05
S009-F7.23.19 chimeric antibody (antibody, human IgG1, kappa, V domains shown, Human-murine chimeric antibody, human IgG1/kappa constant regions) VH: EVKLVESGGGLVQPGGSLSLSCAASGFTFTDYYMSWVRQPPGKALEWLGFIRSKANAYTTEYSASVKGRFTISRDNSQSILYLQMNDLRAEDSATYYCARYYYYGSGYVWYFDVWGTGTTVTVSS VL: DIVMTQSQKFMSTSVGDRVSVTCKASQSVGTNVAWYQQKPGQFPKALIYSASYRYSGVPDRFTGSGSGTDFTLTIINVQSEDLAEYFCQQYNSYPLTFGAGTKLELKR	0.05
S009-F7.2.3 chimeric antibody (antibody, human IgG1, kappa, V domains shown, Human-murine chimeric antibody, human IgG1/kappa constant regions) VH: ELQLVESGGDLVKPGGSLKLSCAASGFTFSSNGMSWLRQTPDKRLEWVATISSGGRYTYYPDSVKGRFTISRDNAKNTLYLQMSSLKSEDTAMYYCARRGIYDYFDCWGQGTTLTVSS VL: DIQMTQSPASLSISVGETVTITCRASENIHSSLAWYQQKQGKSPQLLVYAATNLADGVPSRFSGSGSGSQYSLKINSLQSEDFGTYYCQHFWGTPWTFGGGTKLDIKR	0.06
S009-F7.44.20 chimeric antibody (antibody, human IgG1, kappa, V domains shown, Human-murine chimeric antibody, human IgG1/kappa constant regions) VH: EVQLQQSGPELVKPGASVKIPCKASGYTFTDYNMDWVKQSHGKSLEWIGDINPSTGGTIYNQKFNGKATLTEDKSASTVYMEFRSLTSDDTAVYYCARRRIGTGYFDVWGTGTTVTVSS VL: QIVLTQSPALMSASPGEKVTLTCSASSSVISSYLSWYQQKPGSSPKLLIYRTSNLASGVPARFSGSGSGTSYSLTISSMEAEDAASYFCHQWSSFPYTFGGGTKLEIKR	0.04
S009-F7.67.12 chimeric antibody (antibody, human IgG1, kappa, V domains shown, Human-murine chimeric antibody, human IgG1/kappa constant regions) VH: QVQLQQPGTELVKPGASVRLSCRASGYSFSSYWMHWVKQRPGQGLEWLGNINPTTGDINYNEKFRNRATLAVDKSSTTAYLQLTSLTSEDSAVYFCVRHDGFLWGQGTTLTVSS VL: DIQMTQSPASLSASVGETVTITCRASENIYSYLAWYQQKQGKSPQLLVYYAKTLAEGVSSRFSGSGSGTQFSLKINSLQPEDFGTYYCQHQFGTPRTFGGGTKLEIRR	0.05

Reference source for all entries: patent US20250250357A1
